Reference source for all entries: patent US20260297070A1

# TARGET OF ASSAY: human Werner helicase (WRN-BV08, Uniprot Q14191, amino acids 517-1235 with L1074F point mutation) (Homo sapiens, UniProt Q14191, L1074F)
# Construct: Uniprot Q14191, amino acids 517-1235 with L1074F point mutation; TEV-cleavable 8×His (C, cleaved yes); made in house; host or cells: Sf9 insect cells (baculovirus)
# Sequence (Q14191 with tags, fused parts or gaps L1074F limits assumed): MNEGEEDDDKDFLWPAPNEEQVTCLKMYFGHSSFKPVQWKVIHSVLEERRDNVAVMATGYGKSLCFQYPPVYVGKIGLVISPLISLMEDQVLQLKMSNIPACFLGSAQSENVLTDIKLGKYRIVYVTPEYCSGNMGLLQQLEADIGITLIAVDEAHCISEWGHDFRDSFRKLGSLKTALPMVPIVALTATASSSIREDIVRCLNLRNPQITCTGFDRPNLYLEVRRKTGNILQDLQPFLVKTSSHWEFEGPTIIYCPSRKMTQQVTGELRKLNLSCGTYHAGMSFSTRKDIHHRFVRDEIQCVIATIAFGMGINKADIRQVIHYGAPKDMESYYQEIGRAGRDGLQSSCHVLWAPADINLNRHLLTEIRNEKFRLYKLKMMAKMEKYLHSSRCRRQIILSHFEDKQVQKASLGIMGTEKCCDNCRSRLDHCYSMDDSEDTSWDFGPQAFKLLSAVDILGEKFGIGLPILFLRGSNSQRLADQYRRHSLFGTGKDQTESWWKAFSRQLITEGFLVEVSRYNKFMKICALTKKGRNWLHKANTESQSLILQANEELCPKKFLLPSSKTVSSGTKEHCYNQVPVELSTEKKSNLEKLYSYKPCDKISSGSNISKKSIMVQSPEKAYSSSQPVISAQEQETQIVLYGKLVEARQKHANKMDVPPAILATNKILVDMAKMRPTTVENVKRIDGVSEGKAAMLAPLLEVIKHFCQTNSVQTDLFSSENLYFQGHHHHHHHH
# PROTOCOL: WRN (BV08) ADP-Glo Assay
# Format: biochemical
# ASSAY CONTEXT: 0.15 nM WRN, 5 μM ATP, 0.1 nM DNA duplex, 15 min preincubation, 60 min at 25° C., pH 7.5, 1% DMSO; read-out: ADP-Glo_hWRN_IC50
pIC50: −log10 of the molar value.
Assign pIC50 to each entry below.

{"MOLECULE": "CS(=O)(=O)N1CCN(C(C(=O)N(Cc2ccncc2)C2C=CS(=O)(=O)C2)c2ccc(-c3ccc(F)cc3)cc2)CC1 (stereo not shown) [I-548]", "pIC50": "< 4.30"}
{"MOLECULE": "O=C(C1CCn2cc(C(F)(F)F)nc2C1)N(Cc1ccncc1)C1C=CS(=O)(=O)C1 (stereo not shown) [I-622]", "pIC50": "< 4.30"}
{"MOLECULE": "COc1ccc2c(c1)CCCC2C(=O)N(Cc1ccncc1)C1C=CS(=O)(=O)C1 (stereo not shown) [I-717]", "pIC50": "< 4.30"}
{"MOLECULE": "CSc1ccc(CC(=O)N(Cc2ccncc2)C2C=CS(=O)(=O)C2)cc1 (stereo not shown) [I-339]", "pIC50": "4.30 to 5.00"}
{"MOLECULE": "CC(=O)N(C)C(C(=O)N(Cc1ccncc1)C1C=CS(=O)(=O)C1)c1ccc(-c2ccc(F)cc2)cc1 (single isomer, unassigned) [I-378]", "pIC50": "< 4.30"}

Go through the items and report each one's pIC50.
1. CC(C)(C)OC(=O)N1CC(C(=O)N(Cc2ccncc2)C2C=CS(=O)(=O)C2)c2ccc(-c3ccc(F)cc3)cc21 (stereo not shown) [I-569]
2. CN(C)C(=O)C(C(=O)N(Cc1ccnc(C(C)(C)O)c1)C1C=CS(=O)(=O)C1)n1cc(-c2ccccc2)cn1 (stereo not shown) [I-594]

A.
1. < 4.30
2. 5.30 to 6.30

----------
# TARGET OF ASSAY: human Werner helicase (WRN-BV08, Uniprot Q14191, amino acids 517-1235 with L1074F point mutation) (Homo sapiens, UniProt Q14191, L1074F)
# Construct: Uniprot Q14191, amino acids 517-1235 with L1074F point mutation; TEV-cleavable 8×His (C, cleaved yes); made in house; host or cells: Sf9 insect cells (baculovirus)
# PROTOCOL: WRN (BV08) ADP-Glo Assay
# Format: biochemical
# ASSAY CONTEXT: 0.15 nM WRN, 5 μM ATP, 0.1 nM DNA duplex, 15 min preincubation, 60 min at 25° C., pH 7.5, 1% DMSO; read-out: ADP-Glo_hWRN_IC50
pIC50: −log10 of the molar value.
What pIC50 was measured for each of the following?

Example entries begin here.
{"COMPOUND": "CN(C)C(=O)C(C(=O)N(Cc1ccnc(C(C)(C)O)c1)C1C=CS(=O)(=O)C1)c1ccc(-c2ccc(F)cc2)cc1 (stereo not shown) [I-34]", "MEASURED QUANTITY": "pIC50", "RESULT": "> 6.30"}
{"COMPOUND": "COc1cc(CN(C(=O)C(C(=O)N(C)C)c2ccc(-c3ccc(F)cc3)cc2F)C2C=CS(=O)(=O)C2)ccn1 (single isomer, unassigned) [I-235]", "MEASURED QUANTITY": "pIC50", "RESULT": "5.00 to 5.30"}
{"COMPOUND": "Cc1nc(CN(C(=O)Cc2ccc(-n3cccc3)cc2)C2C=CS(=O)(=O)C2)cs1 (stereo not shown)", "MEASURED QUANTITY": "pIC50", "RESULT": "4.30 to 5.00"}
{"COMPOUND": "CC(O)c1cc(CN(C(=O)Cc2ccc(-n3cccc3)cc2)C2C=CS(=O)(=O)C2)ccn1 (stereo not shown)", "MEASURED QUANTITY": "pIC50", "RESULT": "5.30 to 6.30"}
{"COMPOUND": "Cc1cc(CN(C(=O)Cc2ccc(-n3cccc3)cc2)C2C=CS(=O)(=O)C2)ccn1 (stereo not shown)", "MEASURED QUANTITY": "pIC50", "RESULT": "5.30 to 6.30"}

List pIC50 for every entry below, keeping the order given.
1. Cc1nn(-c2ccc(F)cc2F)c(C)c1CC(=O)N(Cc1ccncc1)C1C=CS(=O)(=O)C1 (stereo not shown)
2. COc1cc(CN(C(=O)Cc2ccc(-n3cccc3C)cc2F)C2C=CS(=O)(=O)C2)ccn1 (single isomer, unassigned) [I-329]

A.
< 4.30
4.30 to 5.00

----------
# TARGET OF ASSAY: human Werner helicase (WRN-BV08, Uniprot Q14191, amino acids 517-1235 with L1074F point mutation) (Homo sapiens, UniProt Q14191, L1074F)
# Construct: Uniprot Q14191, amino acids 517-1235 with L1074F point mutation; TEV-cleavable 8×His (C, cleaved yes); made in house; host or cells: Sf9 insect cells (baculovirus)
# PROTOCOL: WRN (BV08) ADP-Glo Assay
# Format: biochemical
# ASSAY CONTEXT: 0.15 nM WRN, 5 μM ATP, 0.1 nM DNA duplex, 15 min preincubation, 60 min at 25° C., pH 7.5, 1% DMSO; read-out: ADP-Glo_hWRN_IC50
# Description: Example 2: WRN (BV08) ADP-Glo Assay Protocol Bovine skin gelatin (BSG), dimethyl sulfoxide (DMSO), Pluronic F-127 and Tris(2-carboxyethyl)phosphine hydrochloride solution (TCEP) were purchased from Sigma-Aldrich at the highest level of purity possible. […] The reaction was stopped by the addition of the ADP-Glo Kit components (Promega) as directed and the relative luminescence units (RLU) were read on an Envision 2104 (Perkin Elmer). […]
pIC50: −log10 of the molar value.
MEASURED QUANTITY: pIC50

Example entries begin here.
{"MOLECULE": "N#Cc1ccc2c(CC(=O)N(Cc3ccncc3)C3C=CS(=O)(=O)C3)c[nH]c2c1 (stereo not shown)", "pIC50": "< 4.30"}
{"MOLECULE": "COc1cc(CN(C(=O)C2CNc3cc(-c4ccc(F)cc4)ccc32)[C@@H]2C=CS(=O)(=O)C2)ccn1 (stereo partly shown)", "pIC50": "> 6.30"}

Record pIC50 per entry; entries follow.
1. CC(C)OC(C(=O)N(Cc1ccnc(C(C)(C)O)c1)C1C=CS(=O)(=O)C1)c1ccc(-c2ccc(F)c(F)c2)cc1F (stereo not shown)
2. COC(C(=O)N(Cc1ccnc(C(C)(C)O)c1)C1C=CS(=O)(=O)C1)c1ccc(S(F)(F)(F)(F)F)cc1 (stereo not shown) [I-81]
3. COc1cc(CN(C(=O)C(OC)c2ccc(-c3ccc(F)cc3)cc2F)C2C=CS(=O)(=O)C2)ccn1 (stereo not shown) [I-71]
4. O=C(CCc1cccc(OC(F)(F)F)c1)N(Cc1ccncc1)C1C=CS(=O)(=O)C1 (stereo not shown)

A.
5.30 to 6.30
> 6.30
> 6.30
< 4.30

Here are 8 molecules. What values of pIC50 were reported for them?
1. CC(C)(O)c1cc(CN(C(=O)Cn2cc(-c3ccc(F)c(F)c3F)cn2)C2C=CS(=O)(=O)C2)ccn1 (single isomer, unassigned)
2. CC(C)(O)c1cc(CN(C(=O)Cc2ccc(-c3ccc(F)c(F)c3)cc2F)C2C=CS(=O)(=O)C2)ccn1 (stereo not shown) [I-32]
3. O=C(Cc1ccc(-n2cccc2)cn1)N(Cc1ccncc1)C1C=CS(=O)(=O)C1 (stereo not shown)
4. C#CCN(C)C(=O)c1ccc(CN(C(=O)Cc2ccc(-n3cccc3)cc2F)C2C=CS(=O)(=O)C2)cc1 (stereo not shown)
5. COc1cc(CN(C(=O)Cc2ccc(-c3ccc(F)c(F)c3)cc2F)C2C=CS(=O)(=O)C2)ccn1 (stereo not shown) [I-64]
6. Cc1cccn1-c1ccc(CC(=O)N(Cc2nc(C3CC3)cs2)C2C=CS(=O)(=O)C2)c(F)c1 (stereo not shown)
7. O=C(Cc1ccc2c(c1)OCO2)N(Cc1ccncc1)C1C=CS(=O)(=O)C1 (stereo not shown)
8. O=C(Cc1ccn(-c2ccccc2)n1)N(Cc1ccncc1)C1C=CS(=O)(=O)C1 (stereo not shown)

A.
["> 6.30", "> 6.30", "4.30 to 5.00", "5.30 to 6.30", "> 6.30", "> 6.30", "< 4.30", "< 4.30"]

Count: 2. Required value per item: pIC50.
1. O=C(Cc1ccc(S(F)(F)(F)(F)F)cc1)N(Cc1ccncc1)C1C=CS(=O)(=O)C1 (single isomer, unassigned) [I-336]
2. O=C(Cc1ccc(-n2cccc2)cc1)N(CC12CCC(CC1)CC2)C1C=CS(=O)(=O)C1 (stereo not shown)

A.
1: 4.30 to 5.00; 2: < 4.30
